Test Description: Nuclear factor erythroid 2-related factor 2/antioxidant responsive element (Nrf2/ARE) small molecule agonists: luciferase reporter gene qHTS assay in human keratinocytes (AID 1919969); further: nearly all actives have a fitted effect of over 35% in size; further: potency means the concentration at half of the fitted maximal effect
Condition Summary: KeratinoSens HaCaT ARE-luciferase, luminescence, 24 h; series mostly up to 92.4 µM
Inconclusive results are not listed. Activity calls are given as the source filed them. The call rests on the fitted dose curve.
Property: Potency

As a guide, the following entries are already answered.
> print(dat)
                                   compound            result
1                         C=CC(=O)OC(C)(C)C          inactive
2                               ClCc1cccnc1          inactive
3  CO[C@@H]1[C@H](OC(=O)NC(=O)CCl)CC[C@]2(CO2)[C@H]1[C@@]1(C)O[C@@H]1CC=C(C)C  16.7 µM (active)
4                              COP(=O)(O)OC          inactive
5   C#CCOC(C(=O)OCCN(C)C)(c1ccccc1)c1ccccc1          inactive

Report Potency for CCC(=O)O[C@@H]1C=C2CCC3C(CCC4(C)C3CC[C@@H]4OC(=O)CC)C2CC1 (stereo partly specified) please. inactive

----------
Test Description: Nuclear factor erythroid 2-related factor 2/antioxidant responsive element (Nrf2/ARE) small molecule agonists: luciferase reporter gene qHTS assay in human keratinocytes (AID 1919969); further: nearly all actives have a fitted effect of over 35% in size
Condition Summary: KeratinoSens HaCaT ARE-luciferase, luminescence, 24 h; series mostly up to 92.4 µM
Records with an inconclusive call do not appear. The source made the active and inactive calls. The call rests on the fitted dose curve.
Permitted responses: active, inactive

Example entries and their recorded answers appear below.
> print(dat)
              molecule       cat
1          CCCCCCCCCBr  inactive
2     Clc1cccc(Cl)c1Cl  inactive
3         CCCN(CCC)N=O  inactive
4  C=CC(=O)OCCCCCC(C)C  inactive
5   CC(C)(C)OOC(C)(C)C  inactive

Call for entry COC(=O)c1c(C(F)F)nc(C(F)(F)F)c(C2=NCCS2)c1CC(C)C : inactive

# iterate: C=CC(=O)OCC(C)C inactive

# iterate: ClC(Cl)(Cl)Br inactive

# iterate: C=CCSSCC=C inactive

----------
Test Description: Nuclear factor erythroid 2-related factor 2/antioxidant responsive element (Nrf2/ARE) small molecule agonists: luciferase reporter gene qHTS assay in human keratinocytes (AID 1919969); further: nearly all actives have a fitted effect of over 35% in size
Condition Summary: KeratinoSens HaCaT ARE-luciferase, luminescence, 24 h; series mostly up to 92.4 µM
Records with an inconclusive call do not appear. Active and inactive are the calls of the source. The call rests on the fitted dose curve.
Permitted responses: 1 for active, -1 for inactive

Example entries and their recorded answers appear below.
> print(dat)
                                   molecule  cat
1   C(CCOCC1CO1)COCC1CO1 (stereo not drawn)    1
2                          C=Cc1cccc(CCl)c1   -1
3                             CC(=O)C=C(C)C   -1
4                              OCCOc1ccccc1   -1
5  CC12CC1(C)C(=O)N(c1cc(Cl)cc(Cl)c1)C2=O (stereo not drawn)   -1
6                             O=S(=O)(Cl)Cl   -1

Call for entry COc1cccc(C=O)c1 : -1

# iterate: CCBr -1

# iterate: O=C(Cl)/C=C/C(=O)Cl -1

# iterate: ClCCOCOCCCl -1

# iterate: COC(=O)NC(=S)Nc1ccccc1NC(=S)NC(=O)OC -1

# iterate: Oc1ccccc1Cl -1

# iterate: CN(C)C(=O)Nc1ccc(Cl)cc1 -1

# iterate: CCC(C)Cl (stereo not drawn) -1

# iterate: CC[C@H](N)c1ccccc1 -1

# iterate: ClC(Cl)=C(Cl)C(Cl)=C(Cl)Cl -1

# iterate: OCc1ccco1 -1

# iterate: Brc1ccc(Br)cc1 -1

----------
Test Description: G protein-coupled receptor (GPCR) small molecule agonists, calcium flux assay: HEK293 wild type cell line counter screen (AID 1920065)
Condition Summary: HEK293 WT calcium flux, fluorescence, agonist mode; series mostly up to 57.6 µM
Calls of active or inactive are those of the source. The call rests on the fitted dose curve.
Property: activation

> print(dat)
                                  mol    result
1                          N#CN=C(N)N  inactive
2                     BrCc1ccc(Br)cc1  inactive
3                           C=C(C)C#N  inactive
4  COP(=S)(OC)Oc1ccc([N+](=O)[O-])cc1  inactive
5    CCOP(=S)(OCC)O/N=C(\C#N)c1ccccc1  inactive
6                       CN(C)c1ccccc1  inactive
7                    CC(C)c1ccc(O)cc1  inactive
8             CCOP(=O)(CN(CCO)CCO)OCC  inactive

Read the next record carefully.
Report activation for CCCCON=O please. inactive

----------
Test Description: p53 small molecule agonists, cell-based qHTS assay with rat liver microsomes (AID 1963578)
Condition Summary: HCT-116 p53RE-bla, beta-lactamase ratio, 16 h; series mostly up to 66 µM
Records with an inconclusive call do not appear. The source made the active and inactive calls. The call rests on the fitted dose curve.
Property: activation

As a guide, the following entries are already answered.
> print(dat)
                                   compound    property    result
1                             Oc1ccc(Cl)cc1  activation  inactive
2  Nc1ccccc1C(=O)OCC(O)CO (stereo unspecified)  activation  inactive
3      CC1OC(C)OC(C)O1 (stereo unspecified)  activation  inactive
4                                CCCCCCCCCl  activation  inactive

Report activation for Oc1ccc(Cl)cc1Cc1ccccc1 please. inactive

----------
Test Description: Nuclear factor erythroid 2-related factor 2/antioxidant responsive element (Nrf2/ARE) small molecule agonists: luciferase reporter gene qHTS assay in human keratinocytes (AID 1919969); further: nearly all actives have a fitted effect of over 35% in size
Condition Summary: KeratinoSens HaCaT ARE-luciferase, luminescence, 24 h; series mostly up to 92.4 µM
Inconclusive results are not listed. Calls of active or inactive are those of the source. Calls come from the whole dose curve.
Permitted responses: active, inactive

> print(dat)
   compound       cat
1    CN(C)N  inactive

Call for entry C=CC(Cl)CCl (configuration not stated) : inactive

# iterate: CCCCCCCCCCBr inactive

# iterate: Clc1cccc(C(Cl)(Cl)Cl)n1 inactive

# iterate: CC1(C)C(C=C(Cl)Cl)C1C(=O)OC(C#N)c1cccc(Oc2ccccc2)c1 (configuration not stated) inactive

# iterate: C(=NC1CCCCC1)=NC1CCCCC1 active

# iterate: C[C@@H]1CN(C2CCC(C#N)(c3ccc(F)cc3)CC2)CC[C@]1(C(=O)O)c1ccccc1 (some centres not stated) inactive

----------
Target Of Assay: 5-hydroxytryptamine receptor 2A (Homo sapiens) (UniProt P28223)
Sequence (P28223 whole entry, looked up): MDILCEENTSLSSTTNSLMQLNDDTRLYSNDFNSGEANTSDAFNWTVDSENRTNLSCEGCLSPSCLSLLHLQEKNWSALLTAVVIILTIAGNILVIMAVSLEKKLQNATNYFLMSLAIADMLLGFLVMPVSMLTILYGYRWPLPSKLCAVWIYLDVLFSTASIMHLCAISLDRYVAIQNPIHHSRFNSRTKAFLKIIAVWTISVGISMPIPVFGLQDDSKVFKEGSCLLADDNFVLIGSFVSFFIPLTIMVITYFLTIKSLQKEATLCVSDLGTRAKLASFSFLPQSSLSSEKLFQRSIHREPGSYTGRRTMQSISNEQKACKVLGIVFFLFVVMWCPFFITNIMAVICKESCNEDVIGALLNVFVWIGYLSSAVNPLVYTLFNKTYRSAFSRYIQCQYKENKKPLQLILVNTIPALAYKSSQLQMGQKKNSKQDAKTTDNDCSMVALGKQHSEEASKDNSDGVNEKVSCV
Test Description: 5-hydroxytryptamine receptor 2A (HTR2A) small molecule antagonists, cell-based qHTS assay (AID 1963586); further: nearly all actives have a fitted effect of over 45% in size
Condition Summary: HTR2A-CHO cells, DOI-induced calcium flux, fluorescence; series mostly up to 61.5 µM
Procedure: National Center for Advancing Translational Sciences [NCATS] Division of Preclinical Innovation [DPI] U.S. Environmental Protection Agency [EPA] National Institutes of Environmental Health Sciences [NIEHS] National Toxicology Program [NTP] […] HTR2A-CHO cells were dispensed at 2000 cells/3uL/well in 1536-well black-clear bottom plates using a Multidrop Dispenser. […] The fluorescence intensity in the plates was measured using FDSS 7000EX kinetic plate reader for 3 min at 1 sec intervals.
Results filed as inconclusive are left out. Active and inactive are the calls of the source. The call rests on the fitted dose curve.
Permitted responses: true = active, false = inactive

Example entries and their recorded answers appear below.
> print(dat)
                                   compound    cat
1  CCOC(=O)C(c1c(O)c2ccccc2oc1=O)c1c(O)c2ccccc2oc1=O  false
2                           N#Cc1ccc(Cl)cc1  false
3  CCOC(=O)c1ccccc1S(=O)(=O)NC(=O)Nc1nc(Cl)cc(OC)n1  false
4             CN(C)C(=O)C(c1ccccc1)c1ccccc1  false
5                       CCOP(=O)(OCC)SCCSCC  false

Call for entry NC(=O)CF : false

# iterate: COP(N)(=O)SC (centres undefined) false

----------
Test Description: G protein-coupled receptor (GPCR) small molecule agonists, calcium flux assay: HEK293 wild type cell line counter screen (AID 1920065)
Condition Summary: HEK293 WT calcium flux, fluorescence, agonist mode; series mostly up to 57.6 µM
Active and inactive are the calls of the source. Calls follow the shape of the full dose curve.
Property: activation

As a guide, the following entries are already answered.
> print(dat)
                                   molecule    property    result
1  CCC(C)c1cc([N+](=O)[O-])cc([N+](=O)[O-])c1O (stereo not drawn)  activation  inactive
2                         CCCCCCCCCCCC(=O)O  activation  inactive
3                          Cc1ccc(Cl)c(O)c1  activation  inactive
4          CCCCCCOC(=O)c1ccccc1C(=O)OCCCCCC  activation  inactive
5                       C=CC(=O)OCCCCCC(C)C  activation  inactive

Report activation for CCCN(CCC)N=O please. inactive

# iterate: CC(C)(C)C(=O)C(Cl)Cl inactive

# iterate: CCC(=O)c1ccccc1 inactive
